- study.system: C5 (Homo sapiens, UniProt P01031)
- Sequence (P01031 678-1676 limits assumed): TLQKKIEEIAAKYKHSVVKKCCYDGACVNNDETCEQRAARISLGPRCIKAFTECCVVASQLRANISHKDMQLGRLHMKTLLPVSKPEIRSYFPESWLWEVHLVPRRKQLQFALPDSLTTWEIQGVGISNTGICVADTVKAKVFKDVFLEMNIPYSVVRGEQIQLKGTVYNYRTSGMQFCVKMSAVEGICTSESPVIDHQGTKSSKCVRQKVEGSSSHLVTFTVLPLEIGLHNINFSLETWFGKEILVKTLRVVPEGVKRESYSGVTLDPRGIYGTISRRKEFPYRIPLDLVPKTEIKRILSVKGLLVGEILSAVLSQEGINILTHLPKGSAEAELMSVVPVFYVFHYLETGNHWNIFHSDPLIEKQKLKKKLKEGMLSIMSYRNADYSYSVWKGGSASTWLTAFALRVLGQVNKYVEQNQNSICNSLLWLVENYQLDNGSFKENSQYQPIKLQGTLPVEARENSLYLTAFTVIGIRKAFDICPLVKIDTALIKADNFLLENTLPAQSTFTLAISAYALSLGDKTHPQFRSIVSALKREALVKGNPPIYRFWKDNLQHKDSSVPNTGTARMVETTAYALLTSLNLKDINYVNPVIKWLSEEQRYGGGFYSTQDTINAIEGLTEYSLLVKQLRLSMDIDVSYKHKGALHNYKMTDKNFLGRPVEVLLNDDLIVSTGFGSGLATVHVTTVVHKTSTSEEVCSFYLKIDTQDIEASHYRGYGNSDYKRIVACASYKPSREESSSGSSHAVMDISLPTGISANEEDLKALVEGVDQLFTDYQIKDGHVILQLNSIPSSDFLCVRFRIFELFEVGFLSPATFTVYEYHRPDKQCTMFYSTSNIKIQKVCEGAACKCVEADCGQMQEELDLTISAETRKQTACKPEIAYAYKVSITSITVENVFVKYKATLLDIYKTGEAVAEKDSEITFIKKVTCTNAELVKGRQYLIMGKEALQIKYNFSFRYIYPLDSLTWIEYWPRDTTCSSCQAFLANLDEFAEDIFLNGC
- Sequence (P01031 19-673 limits assumed): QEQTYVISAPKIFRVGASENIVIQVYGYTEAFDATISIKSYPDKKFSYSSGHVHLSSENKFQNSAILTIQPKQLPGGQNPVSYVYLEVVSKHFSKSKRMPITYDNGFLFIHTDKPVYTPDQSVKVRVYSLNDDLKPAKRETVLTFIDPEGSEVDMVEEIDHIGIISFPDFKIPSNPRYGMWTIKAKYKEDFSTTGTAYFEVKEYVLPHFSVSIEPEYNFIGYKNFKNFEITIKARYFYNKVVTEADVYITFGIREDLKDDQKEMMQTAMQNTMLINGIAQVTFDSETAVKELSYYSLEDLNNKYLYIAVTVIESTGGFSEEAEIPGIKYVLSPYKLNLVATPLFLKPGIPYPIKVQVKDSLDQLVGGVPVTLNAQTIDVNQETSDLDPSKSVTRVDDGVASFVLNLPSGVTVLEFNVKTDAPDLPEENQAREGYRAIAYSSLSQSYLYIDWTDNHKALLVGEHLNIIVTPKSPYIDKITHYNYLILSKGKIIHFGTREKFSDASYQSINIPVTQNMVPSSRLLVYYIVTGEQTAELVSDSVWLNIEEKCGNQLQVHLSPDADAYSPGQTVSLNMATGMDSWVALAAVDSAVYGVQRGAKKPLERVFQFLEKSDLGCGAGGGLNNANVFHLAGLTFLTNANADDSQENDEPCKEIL
- method: Competitive fluorescence polarization (FP) binding assay with probe R3076
- Design: purchased Complement Technology, Tyler, Tex
Starred links: 1 amine or outer side, 2 acyl side, 3 side chain; linkers in the order of their positions; H or OH if unused. Positions of bridges follow the written chain, without caps; N, C: chain ends. Non-standard residues stand in square brackets, D forms with d. Residues, ends and D or L forms follow the SMILES beside them. Trp(7-aza) = N[C@@H](Cc1c[nH]c2ncccc12)C(=O)O; mXylylene = c1cc(C[*:1])cc(C[*:2])c1; Phg = N[C@H](C(=O)O)c1ccccc1; NMeS = CN[C@@H](CO)C(=O)O; Nva = CCC[C@H](N)C(=O)O
quantity: competition for / affinity for C5 in words

{"compound": "CCC[C@H](NC(=O)[C@@H]1CCCN1C(=O)[C@H](CCC)NC(=O)[C@@H]1CSCc2cccc(c2)CSC[C@H](NC(C)=O)C(=O)N[C@@H](c2ccccc2)C(=O)N[C@@H]([C@@H](C)O)C(=O)N[C@@H](Cc2c[nH]c3ncccc23)C(=O)N[C@@H](CCC(=O)O)C(=O)N[C@@H](Cc2ccc(O)cc2)C(=O)N(C)[C@@H](CO)C(=O)N[C@@H](Cc2c[nH]cn2)C(=O)N1)C(N)=O [Compound R3014] (Ac-C[Phg]T[Trp(7-aza)]EY[NMeS]HC[Nva]P[Nva]-NH2; linker 1-9 via mXylylene)", "study.system": "C5 (Homo sapiens, UniProt P01031)", "reported.value": "weak affinity"}
{"compound": "CSCC[C@H](N)C(=O)N[C@H]1CSCc2cccc(c2)CSC[C@@H](C(=O)N[C@@H](CC(=O)O)C(=O)N[C@H](C(=O)N[C@@H](Cc2ccc(O)cc2)C(=O)N[C@@H](Cc2c[nH]c3ccccc23)C(=O)N[C@@H](CCC(=O)O)C(N)=O)C(C)C)NC(=O)[C@H](Cc2ccccc2)NC(=O)[C@H](CCCNC(=N)N)NC(=O)[C@H](CCC(=O)O)NC(=O)[C@H](C(C)C)NC1=O [Compound R3043, [mXylyl(2,7)]M-C-V-E-R-F-C-D-V-Y-W-E-NH2] (H-MCVERFCDVYWE-NH2; linker 2-7 via mXylylene)", "study.system": "C5 (Homo sapiens, UniProt P01031)", "reported.value": "weak affinity"}

====

- study.system: C5 (Homo sapiens)
- method: Alternative human hemolysis assay using C5 depleted sera and purified human C5
- Format: cell-based
- Parameters: purchased Complement Technology, Tyler, Tex
- condition.summary: […] human C5 depleted sera, 0.5 nM purified human C5
quantity: pIC50
# log scale: pIC50 equals minus log10 of the concentration in mol/L

pIC50 for CCCCCCCCCCCCCCCC(=O)NCCCC[C@H](NC(=O)[C@@H](NC(=O)[C@@H]1CCCN1C(=O)[C@H](Cc1ccc(O)cc1)NC(=O)[C@H](CCC(=O)O)NC(=O)[C@H](Cc1c[nH]c2ccccc12)NC(=O)[C@H](Cc1ccc(O)cc1)NC(=O)[C@@H](NC(=O)[C@H](CC(=O)O)N(C)C(=O)[C@@H]1CC(=O)NCCCC[C@H](NC(C)=O)C(=O)N[C@@H](C(C)C)C(=O)N[C@@H](CCC(=O)O)C(=O)N[C@@H](CCCNC(=N)N)C(=O)N[C@@H](Cc2ccccc2)C(=O)N1)C(C)(C)C)C1CCCCC1)C(=O)O [Compound R3195] ? 7.20

====

- study.system: C5 (Homo sapiens, UniProt P01031)
- method: Alternative human hemolysis assay using C5 depleted sera and purified human C5
- Type: cell-based
- Parameters: purchased Complement Technology, Tyler, Tex
- condition.summary: […] human C5 depleted sera, 0.5 nM purified human C5
Listed below: IC50 values for each entry.
Field: numeric (µM). Do not append units.

{"chemical.structure": "CCCCCCCCCCCCCCCC(=O)NCCCC[C@H](NC(=O)C(C)(C)NC(=O)[C@@H]1CCCN1C(=O)[C@H](Cc1ccc(O)cc1)NC(=O)[C@H](CCC(=O)O)NC(=O)[C@H](Cc1c[nH]c2ncccc12)NC(=O)[C@H](Cc1ccc(O)cc1)NC(=O)[C@@H](NC(=O)[C@H](CC(=O)O)N(C)C(=O)[C@@H]1CC(=O)NCCCC[C@H](NC(C)=O)C(=O)N[C@@H](C(C)C)C(=O)N[C@@H](CCC(=O)O)C(=O)N[C@@H](CCCNC(=N)N)C(=O)N[C@@H](Cc2ccccc2)C(=O)N1)C(C)(C)C)C(=O)O", "IC50 [µM]": 0.0885}

Would you kindly look at the next entry?
IC50 for CCC[C@H](NC(=O)[C@@H](NC(=O)[C@@H]1CCCN1C(=O)[C@H](Cc1ccc(O)cc1)NC(=O)[C@H](CCC(=O)O)NC(=O)[C@H](Cc1cccc(CN)c1)NC(=O)[C@H](Cc1ccc(O)cc1)NC(=O)[C@@H](NC(=O)[C@H](CC(=O)O)NC(=O)[C@@H]1CSCc2cccc(c2)CSC[C@H](NC(C)=O)C(=O)N[C@@H](C(C)C)C(=O)N[C@@H](CCC(=O)O)C(=O)N[C@@H](CCCNC(=N)N)C(=O)N[C@@H](Cc2ccccc2)C(=O)N1)C(C)(C)C)C1CCCCC1)C(=O)O ? 1.5

====

Listed below: IC50 values for each entry.
- study.system: C5 (Homo sapiens, UniProt P01031)
- method: Alternative human hemolysis assay using C5 depleted sera and purified human C5
- Type: cell-based
- Parameters: purchased Complement Technology, Tyler, Tex
- condition.summary: […] human C5 depleted sera, 0.5 nM purified human C5
Field: numeric (nM). Do not append units.

{"molecule": "CCCCCCCCCCCCCCCC(=O)NCCCC[C@H](NC(=O)[C@@H](NC(=O)[C@@H]1CCCN1C(=O)[C@H](Cc1ccc(O)cc1)NC(=O)[C@H](CCC(=O)O)NC(=O)[C@H](Cc1c[nH]c2ncccc12)NC(=O)[C@H](Cc1ccc(O)cc1)NC(=O)[C@@H](NC(=O)[C@H](CC(=O)O)N(C)C(=O)[C@@H]1CSSCCC(=O)N[C@H](C)C(=O)N[C@@H](CCC(=O)O)C(=O)N[C@@H](CCCNC(=N)N)C(=O)N[C@@H](Cc2ccccc2)C(=O)N1)C(C)(C)C)C1CCCCC1)C(=O)O [Compound R3199]", "result.unit": "nM", "IC50": 112}

Would you kindly look at the next entry?
IC50 for CC(=O)N[C@H]1CCCCNC(=O)C[C@@H](C(=O)N(C)[C@@H](CC(=O)O)C(=O)N[C@H](C(=O)N[C@@H](Cc2ccc(O)cc2)C(=O)N[C@@H](Cc2c[nH]c3ccccc23)C(=O)N[C@@H](CCC(=O)O)C(=O)N[C@@H](Cc2ccc(O)cc2)C(=O)N2CCC[C@H]2C(=O)N[C@H](C(=O)N[C@@H](CCCCN)C(=O)O)C2CCCCC2)C(C)(C)C)NC(=O)[C@H](Cc2ccccc2)NC(=O)[C@H](CCCNC(=N)N)NC(=O)[C@H](CCC(=O)O)NC(=O)[C@H](C(C)C)NC1=O [Compound R3196] ? 3

====

Listed below: IC50 values for each entry.
- study.system: C5 (Homo sapiens)
- method: Alternative human hemolysis assay using C5 depleted sera and purified human C5
- Format: cell-based
- Design: purchased Complement Technology, Tyler, Tex
- condition.summary: […] human C5 depleted sera, 0.5 nM purified human C5
Field: numeric (nM). Do not append units.

{"chemical.structure": "CCCCCCCCCCCCCCCC(=O)NCCCC[C@H](NC(=O)[C@@H](NC(=O)[C@@H]1CCCN1C(=O)[C@H](Cc1ccc(O)cc1)NC(=O)[C@H](CCC(=O)O)NC(=O)[C@H](Cc1c[nH]c2ncccc12)NC(=O)[C@H](Cc1ccc(O)cc1)NC(=O)[C@@H](NC(=O)[C@H](CC(=O)O)NC(=O)[C@@H]1CSCc2cccc(c2)CSC[C@H](NC(C)=O)C(=O)N[C@@H](C)C(=O)N[C@@H](CCC(=O)O)C(=O)N[C@@H](CCCNC(=N)N)C(=O)N[C@@H](Cc2ccccc2)C(=O)N1)C(C)(C)C)c1ccccc1)C(=O)O", "result.unit": "nM", "IC50": 81.5}

Would you kindly look at the next entry?
IC50 for CC(=O)N[C@H]1CCCCNC(=O)C[C@@H](C(=O)N(C)[C@@H](CC(=O)O)C(=O)N[C@H](C(=O)N[C@@H](Cc2ccc(O)cc2)C(=O)N[C@@H](Cc2c[nH]c3ccccc23)C(=O)N[C@@H](CCC(=O)O)C(=O)N[C@@H](Cc2ccc(O)cc2)C(=O)N2CCC[C@H]2C(=O)N[C@H](C(=O)N[C@@H](CCCCNC(CC(C)C)=C2C(=O)CC(C)(C)CC2=O)C(=O)O)C2CCCCC2)C(C)(C)C)NC(=O)[C@H](Cc2ccccc2)NC(=O)[C@H](CCCNC(=N)N)NC(=O)[C@H](CCC(=O)O)NC(=O)[C@H](C(C)C)NC1=O ? 4
